biological target: human Claudin-6 (CLDN6) (human) (UniProt P56747); assay: FACS, 0.3 ug Ab, 293T clone expressing human CLDN6 (2nd Ab only 768.07)
property_label: FACS fluorescence
Give bare numbers.

Data request: Look at this binder and give its reported FACS fluorescence. AB4-3 (antibody, V domains shown, humanized) VH: QVQLVQSGAEVKKPGASVKVSCKASGYTFTSYTMHWVRQAPGQGLEWMGYINPSSTYTHYAQKFQGRVTMTADTSTSTVYMELSSLRSEDTAVYYCSRGELGGFAYWGQGTLVTVSS VL: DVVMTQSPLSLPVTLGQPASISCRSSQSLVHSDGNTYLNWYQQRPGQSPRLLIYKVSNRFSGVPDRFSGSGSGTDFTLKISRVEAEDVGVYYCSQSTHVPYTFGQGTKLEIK
Data returned: 14300

Could you now consider this next binder?
Data request: Look at this binder and give its reported FACS fluorescence. AB4-11 (antibody, V domains shown, humanized) VH: QVQLVQSGAEVKKPGASVKMSCKASGYTFTSYTMHWIRQAPGQGLEWIGYINPSSTYTHYIKKFKDRATLTADKSTSTAYMELSSLRSEDTAVYYCSRGELGGFAYWGQGTLVTVSS VL: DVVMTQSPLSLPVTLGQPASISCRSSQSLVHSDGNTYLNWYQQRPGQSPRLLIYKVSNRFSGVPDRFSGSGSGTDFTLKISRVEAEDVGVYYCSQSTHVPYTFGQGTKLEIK
Data returned: 37800
